# Procedure details: CCTE_Padilla_ZF_Score.Position: CCTE's 144 Hour Post-fertilization zebrafish Assay Score for Position, Padilla Lab (AID 2284409)
Activity calls are given as the source filed them. The calls were made as follows: active = hit-call score of the fitted dose curve at least 0.9, where 1 is the maximum; inactive = score below 0.9.
Log the outcome using a class from True for active, False for inactive

• FC(F)(F)C(F)(F)C(F)(F)C(F)(F)C(F)(F)C(F)(F)C(F)(F)Br = False
• O=C(O)C(F)(F)C(F)(F)OC(F)(F)F = False
• CC(C)(C)C(=O)CC(=O)C(F)(F)C(F)(F)C(F)(F)F = True
• OCC(F)(F)C(F)(F)C(F)(F)F = False
• O=S(=O)(O)C(F)(F)C(F)(F)C(F)(F)C(F)(F)C(F)(F)C(F)(F)C(F)(F)F = True
• FC(F)(F)C(F)(F)C(F)(F)C(F)(F)CCI = False
• O=C(CC(=O)C(F)(F)C(F)(F)F)C(F)(F)F = False
• N=C(N)C(F)(F)C(F)(F)C(F)(F)C(F)(F)C(F)(F)C(F)(F)C(F)(F)F = False
• C=C(C)C(=O)OCC(F)(F)C(F)(F)C(F)(F)C(F)(F)C(F)(F)C(F)(F)C(F)(F)F = False
• FC(F)(I)C(F)(F)C(F)(F)C(F)(F)I = False

Outcome? O=C(O)C(F)(F)C(F)(F)C(F)(F)C(F)(F)C(F)(F)C(F)(F)C(F)(F)C(F)(F)Cl True

Outcome? O=C(O)C(F)(F)C(F)(F)C(F)(F)C(F)(F)C(F)(F)C(F)(F)C(F)(F)C(F)(F)C(F)(F)C(F)F False

Outcome? O=C(O)C(F)(OC(F)(F)C(F)(OC(F)(F)C(F)(F)C(F)(F)F)C(F)(F)F)C(F)(F)F (configuration not stated) False

Outcome? NC(=O)C(F)(F)C(F)(F)C(F)(F)C(F)(F)F False

Outcome? OCCCC(F)(F)C(F)(F)C(F)(F)C(F)(F)C(F)(F)C(F)(F)C(F)(F)F False

Outcome? O=C(O)C(F)(F)C(F)(F)C(F)F False

Outcome? O=C(O)C(F)(F)C(F)(F)C(F)(F)C(F)(F)C(F)(F)C(F)(F)C(F)(F)C(F)(F)C(F)(F)C(F)(F)C(F)(F)C(F)(F)C(F)(F)F False
